# Format: in vivo, human
# protocol.conditions: human, plasma, oral, 40 mg

compound	AUC(0-t) [µM·h]
N#Cc1ccc2c(c1)[C@H]1CCCN(C(=O)c3ccc4[nH]cnc4c3)[C@H]1C2 [BI 187004]	27.7

====

# Format: in vivo, human
# protocol.conditions: human, plasma, oral, 20 mg, C max,SS, 20 mg; Day 14; gMean (%gCV)
observed.property: Cmax (nM)

N#Cc1ccc2c(c1)[C@H]1CCCN(C(=O)c3ccc4[nH]cnc4c3)[C@H]1C2 1940

====

# Type: in vivo, human
# protocol.conditions: human, plasma, oral, 240 mg, t max, SS, 240 mg; Day 14; median (min–max)

compound	unit.label	Tmax
N#Cc1ccc2c(c1)[C@H]1CCCN(C(=O)c3ccc4[nH]cnc4c3)[C@H]1C2 [BI 187004]	min	40

====

# Format: in vivo, human
# protocol.conditions: human, plasma and urine, oral, 240 mg
observed.property: CL renal (mL/min)

N#Cc1ccc2c(c1)[C@H]1CCCN(C(=O)c3ccc4[nH]cnc4c3)[C@H]1C2 4.38

====

# Type: in vivo, human
# protocol.conditions: human, plasma, oral, 80 mg, t max, 80 mg; Day 1; median (min–max)
observed.property: Tmax (min)

N#Cc1ccc2c(c1)[C@H]1CCCN(C(=O)c3ccc4[nH]cnc4c3)[C@H]1C2 50

====

# Format: in vivo, human
# protocol.conditions: human, plasma, oral, 20 mg

compound	Vd/F (L)
N#Cc1ccc2c(c1)[C@H]1CCCN(C(=O)c3ccc4[nH]cnc4c3)[C@H]1C2 [BI 187004]	253

====

# Type: in vivo, human
# protocol.conditions: human, plasma, oral, 20 mg, C max, 20 mg; Day 1; gMean (%gCV)
observed.property: Cmax (nM)

N#Cc1ccc2c(c1)[C@H]1CCCN(C(=O)c3ccc4[nH]cnc4c3)[C@H]1C2 1370

====

# Type: in vivo, human
# protocol.conditions: human, plasma, oral, 240 mg
observed.property: AUC (µM·h)

N#Cc1ccc2c(c1)[C@H]1CCCN(C(=O)c3ccc4[nH]cnc4c3)[C@H]1C2 145

====

# Format: in vivo, human
# protocol.conditions: human, plasma, oral, 40 mg
observed.property: AUC (µM·h)

N#Cc1ccc2c(c1)[C@H]1CCCN(C(=O)c3ccc4[nH]cnc4c3)[C@H]1C2 26.9

====

# Format: in vivo, human
# protocol.conditions: human, plasma, oral, 10 mg
observed.property: AUC(0-t)

N#Cc1ccc2c(c1)[C@H]1CCCN(C(=O)c3ccc4[nH]cnc4c3)[C@H]1C2 7.5 µM·h

====

# Format: in vivo, human
# protocol.conditions: human, plasma, oral, 80 mg
observed.property: half-life (h)

N#Cc1ccc2c(c1)[C@H]1CCCN(C(=O)c3ccc4[nH]cnc4c3)[C@H]1C2 60.3
